# methodNotes: pKa determination, potentiometric
# protocolConditions: this work, 25°C, […] KCl (footnote b)
assayEndpoint: pKa

* CNCCC(Oc1ccc(C(F)(F)F)cc1)c1ccccc1 (centres unmarked) | 9.79
* O=C(O)CCCc1ccc(N(CCCl)CCCl)cc1 | 4.6

----------
# methodNotes: physchem
assayEndpoint: pKa

• CC(=O)CC(c1ccccc1)c1c(O)c2ccccc2oc1=O (stereo not shown) = 4.75

----------
# methodNotes: Charge class Q, dominant calculated charge state at pH 7.4
# Format: physicochemical
# protocolConditions: dominant calculated concentration fraction of the drug in a charge state
assayEndpoint: Q (charge class)

* C[C@]12CCC(=O)C=C1CC[C@@H]1[C@@H]2[C@@H](O)C[C@@]2(C)[C@H]1CC[C@]2(O)C(=O)CO [Hydrocortisone] | 0
* O=c1[nH]c2ccccc2n1CCCN1CCC(n2c(=O)[nH]c3cc(Cl)ccc32)CC1 | +
* CC(=O)O[C@H]1C(=O)[C@@]2(C)[C@H]([C@H](OC(=O)c3ccccc3)[C@]3(O)C[C@H](OC(=O)[C@H](O)[C@@H](NC(=O)c4ccccc4)c4ccccc4)C(C)=C1C3(C)C)[C@]1(OC(C)=O)CO[C@@H]1C[C@@H]2O | 0
* CN(C)CCCC1(c2ccc(F)cc2)OCc2cc(C#N)ccc21 (stereo not shown) | +
* CC(NC(C)(C)C)C(=O)c1cccc(Cl)c1 (stereo not shown) | +
* CC[C@H](C)C(=O)O[C@H]1C[C@@H](C)C=C2C=C[C@H](C)[C@H](CC[C@@H](O)C[C@@H](O)CC(=O)O)[C@H]21 | −
* O=c1c(O)c(-c2ccc(O)c(O)c2)oc2cc(O)cc(O)c12 | 0
* O=C(O)COCCN1CCN(C(c2ccccc2)c2ccc(Cl)cc2)CC1 (stereo not shown) | ±
* CC(C)c1nc(CN(C)C(=O)N[C@H](C(=O)N[C@@H](Cc2ccccc2)C[C@H](O)[C@H](Cc2ccccc2)NC(=O)OCc2cncs2)C(C)C)cs1 | 0
* CNCC[C@@H](Oc1ccccc1C)c1ccccc1 | +
* NC(=O)N1c2ccccc2C=Cc2ccccc21 [Carbamazepine] | 0
* COc1ccc2cc([C@H](C)C(=O)O)ccc2c1 | −
* N[C@@H](Cc1ccc(O)c(O)c1)C(=O)O | ±
* CN1CCN2c3ncccc3Cc3ccccc3C2C1 (stereo not shown) | 0
* CCC1(C)CC(=O)NC1=O (stereo not shown) [Ethosuximide] | 0
* COc1cccc2c1C(=O)c1c(O)c3c(c(O)c1C2=O)C[C@@](O)(C(=O)CO)C[C@@H]3O[C@H]1C[C@H](N)[C@H](O)[C@H](C)O1 | +
* CC(C)Cc1ccc(C(C)C(=O)O)cc1 (stereo not shown) | −
* CC(=O)[C@H]1CC[C@H]2[C@@H]3CCC4=CC(=O)CC[C@]4(C)[C@H]3CC[C@]12C | 0
* CNS(=O)(=O)Cc1ccc2[nH]cc(CCN(C)C)c2c1 | +
* CN/C(=N/CCSCc1nc[nH]c1C)NC#N | 0
* COc1ccc(CCN2CCC(Nc3nc4ccccc4n3Cc3ccc(F)cc3)CC2)cc1 | +
* CN(C)CCC=C1c2ccccc2CCc2ccccc21 | +
* CC[C@]1(O)C[C@H]2CN(CCc3c([nH]c4ccccc34)[C@@](C(=O)OC)(c3cc4c(cc3OC)N(C=O)[C@H]3[C@@](O)(C(=O)OC)[C@H](OC(C)=O)[C@]5(CC)C=CCN6CC[C@]43[C@@H]65)C2)C1 | 0
* OCCN1CCN(CCCN2c3ccccc3Sc3ccc(Cl)cc32)CC1 | +
* CC(C(=O)O)c1ccc(-c2ccccc2)c(F)c1 (stereo not shown) | −
* CSc1ccc2c(c1)N(CCC1CCCCN1C)c1ccccc1S2 (stereo not shown) | +
* C=C[C@H]1C[N@@]2CC[C@H]1C[C@@H]2[C@@H](O)c1ccnc2ccc(OC)cc12 | +
* OCCN(CCO)c1nc(N2CCCCC2)c2nc(N(CCO)CCO)nc(N3CCCCC3)c2n1 | 0
* CC(C)n1c(/C=C/C(O)CC(O)CC(=O)O)c(-c2ccc(F)cc2)c2ccccc21 (stereo not shown) | −
* O=C1C[C@@H](c2ccc(O)cc2)Oc2cc(O)cc(O)c21 | 0
* CCCN1C[C@H](CSC)C[C@@H]2c3cccc4[nH]cc(c34)C[C@H]21 [Pergolide] | +
* CN(C)CCC=C1c2ccccc2COc2ccccc21 [Doxepin] | +
* CCN(CC)CCNC(=O)c1cc(Cl)c(N)cc1OC [Metoclopramide] | +
* O=C(O)c1ccccc1O | −

----------
# methodNotes: In combo PAMPA-BBB model, calculated log Po in situ
# protocolConditions: efflux inhibition mdr1a(−/−)
assayEndpoint: obs–calc (log Po^in situ)

• COc1cccc2c1C(=O)c1c(O)c3c(c(O)c1C2=O)C[C@@](O)(C(=O)CO)C[C@@H]3O[C@H]1C[C@H](N)[C@H](O)[C@H](C)O1 = 1.7
• O=C1NC(=O)C(c2ccccc2)(c2ccccc2)N1 = −0.3
• CC[C@]1(O)C[C@H]2CN(CCc3c([nH]c4ccccc34)[C@@](C(=O)OC)(c3cc4c(cc3OC)N(C=O)[C@H]3[C@@](O)(C(=O)OC)[C@H](OC(C)=O)[C@]5(CC)C=CCN6CC[C@]43[C@@H]65)C2)C1 = −0.1
• COc1ccc(CCN2CCC(Nc3nc4ccccc4n3Cc3ccc(F)cc3)CC2)cc1 = −1.2
• CN(C)CCCN1c2ccccc2Sc2ccc(Cl)cc21 = 0.2
• CN(C)CCC=C1c2ccccc2CCc2ccccc21 = 0.1
• CC(C)(C)NC(=O)[C@@H]1C[C@@H]2CCCC[C@@H]2CN1C[C@@H](O)[C@H](Cc1ccccc1)NC(=O)[C@H](CC(N)=O)NC(=O)c1ccc2ccccc2n1 = 0.5
• CC(C)(C)NC(=O)[C@@H]1CN(Cc2cccnc2)CCN1C[C@@H](O)C[C@@H](Cc1ccccc1)C(=O)N[C@H]1c2ccccc2C[C@H]1O = 0.3
• CN1CCN(C2=Nc3cc(Cl)ccc3Nc3ccccc32)CC1 = −0.5
• COc1cc([C@@H]2c3cc4c(cc3[C@@H](O[C@@H]3O[C@@H]5CO[C@@H](C)O[C@H]5[C@H](O)[C@H]3O)[C@H]3COC(=O)[C@H]23)OCO4)cc(OC)c1O [Etoposide] = 0.1
• CCCN(CCC)S(=O)(=O)c1ccc(C(=O)O)cc1 = −0.6
• CCCC(CCC)C(=O)O = −0.2
• CN/C(=N/CCSCc1nc[nH]c1C)NC#N = 0.0
• NC(=O)N1c2ccccc2C=Cc2ccccc21 [Carbamazepine] = 0.6

----------
# maps each entry to its Pm^7.4
# protocolConditions: PAMPA, pH 7.4
assayEndpoint: Pm^7.4

* CSc1ccc2c(c1)N(CCC1CCCCN1C)c1ccccc1S2 (stereo not drawn) | 1972
* CN1CCN(CCCN2c3ccccc3Sc3ccc(C(F)(F)F)cc32)CC1 | 1442
* CC(C)NCC(O)COc1cccc2ccccc12 (stereo not drawn) | 87
* CNS(=O)(=O)Cc1ccc2[nH]cc(CCN(C)C)c2c1 | 0.4
* O=C(O)CCCc1ccc(N(CCCl)CCCl)cc1 | 6
* COc1ccc2c3c1O[C@H]1[C@@H](O)C=C[C@H]4[C@@H](C2)N(C)CC[C@@]341 | 27
* COc1cc([C@@H]2c3cc4c(cc3[C@@H](O[C@@H]3O[C@@H]5CO[C@@H](C)O[C@H]5[C@H](O)[C@H]3O)[C@H]3COC(=O)[C@H]23)OCO4)cc(OC)c1O [Etoposide] | 0.6
* N[C@@H](Cc1ccc(N(CCCl)CCCl)cc1)C(=O)O | 0.03
* CN1CCN2c3ncccc3Cc3ccccc3C2C1 (stereo not drawn) | 579
* CN(C)C(=O)C(CCN1CCC(O)(c2ccc(Cl)cc2)CC1)(c1ccccc1)c1ccccc1 [Loperamide] | 102
* CN(C)CCCN1c2ccccc2Sc2ccc(Cl)cc21 | 496
* OCCN1CCN(CCCN2c3ccccc3Sc3ccc(C(F)(F)F)cc32)CC1 | 1326
* N[C@@H](Cc1ccc(O)c(O)c1)C(=O)O | 0.01
* CN1CCCCC1CCN1c2ccccc2Sc2ccc([S+](C)[O-])cc21 (stereo not drawn) | 14
* CC(C(=O)O)c1ccc(-c2ccccc2)c(F)c1 (stereo not drawn) | 3
* O=C(CCCN1CCC(O)(c2ccc(Cl)cc2)CC1)c1ccc(F)cc1 | 464
* O=C1C[C@@H](c2ccc(O)cc2)Oc2cc(O)cc(O)c21 | 33
* CN1CCN(C2=Nc3ccccc3Oc3ccc(Cl)cc32)CC1 | 829
* Clc1ccc2c(c1)C(N1CCNCC1)=Nc1ccccc1O2 | 289
* Cn1c(=O)c2c(ncn2C)n(C)c1=O | 1
* O=C1NC(=O)C(c2ccccc2)(c2ccccc2)N1 | 41
* CNCCCC12CCC(c3ccccc31)c1ccccc12 | 311
* CC(NC(C)(C)C)C(=O)c1cccc(Cl)c1 (stereo not drawn) | 101
* CCCN(CCC)S(=O)(=O)c1ccc(C(=O)O)cc1 | 0.06
* COc1cccc2c1C(=O)c1c(O)c3c(c(O)c1C2=O)C[C@@](O)(C(C)=O)C[C@@H]3O[C@H]1C[C@H](N)[C@H](O)[C@H](C)O1 | 10
* CC[C@]1(O)C[C@@H]2CN(CCc3c([nH]c4ccccc34)[C@@](C(=O)OC)(c3cc4c(cc3OC)N(C)[C@H]3[C@@](O)(C(=O)OC)[C@H](OC(C)=O)[C@]5(CC)C=CCN6CC[C@]43[C@@H]65)C2)C1 | 32
* COc1cccc2c1C(=O)c1c(O)c3c(c(O)c1C2=O)C[C@@](O)(C(=O)CO)C[C@@H]3O[C@H]1C[C@H](N)[C@H](O)[C@H](C)O1 | 0.3
* CN(C)CCC=C1c2ccccc2COc2ccccc21 [Doxepin] | 223
* OCCOCCN1CCN(C(c2ccccc2)c2ccc(Cl)cc2)CC1 (stereo not drawn) [Hydroxyzine] | 82
* COc1ccc2c3c1O[C@H]1C[C@@H](O)C=C[C@@]31CCN(C)C2 | 22
* OCCOCCN1CCN(C2=Nc3ccccc3Sc3ccccc32)CC1 | 583
* CC(=O)[C@H]1CC[C@H]2[C@@H]3CCC4=CC(=O)CC[C@]4(C)[C@H]3CC[C@]12C | 263
* OCCN1CCN(CCCN2c3ccccc3Sc3ccc(Cl)cc32)CC1 | 1612
* NNCCc1ccccc1 | 2236
* Cn1cnc2c1c(=O)[nH]c(=O)n2C | 0.01
* CN1C[C@H](C(=O)N[C@]2(C)O[C@@]3(O)[C@@H]4CCCN4C(=O)[C@H](Cc4ccccc4)N3C2=O)C=C2c3cccc4[nH]cc(c34)C[C@H]21 | 1823
